Numbers sourced from PubChem BioAssay AID2501.

# testDescription: counter assay for TAg ATPase ADP read-out – biochemical, ADP-Hunter, fluorescence, counter-screen (AID 2501);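 note: purified T antigen ATPase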
# runParameters: series mostly up to 100 µM
Screen size: about 2,200 compounds; about 1,200 (55%) were called active. The set was probably picked from earlier hits. Some of the results follow.
parameterMeasured: IC50

C/C(=N\NC(=O)c1csc(C)c1C)c1ccc(C)s1 : inactive
CC(C)n1c(=S)[nH]c2c1c(=O)[nH]c(=O)n2C : 92 µM (active)
Cc1nn(-c2ccc(Cl)cc2)c2[nH]c(=O)c(CNCc3ccc4c(c3)OCO4)cc12 : inactive
CC(=O)NCCc1c[nH]c2ccc(O)cc12 : 7 µM (active)

---

# testDescription: counter assay for TAg ATPase ADP read-out – biochemical, ADP-Hunter, fluorescence, counter-screen (AID 2501);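 note: purified T antigen ATPase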
# runParameters: series mostly up to 100 µM
Hit rate of the full screen: of about 2,200 compounds, about 1,200 (55%) were called active. Cut-off not given; nearly all actives show IC50 up to about 92 µM. So high a share suggests a set chosen from earlier hits. This is one part of the list.
Return exactly one item of true (1) (active), false (0) (inactive)

Worked examples follow.
Cc1ccc(S(=O)(=O)CCSC(=N)N)cc1 : false (0)
N=C1/C(=C\c2coc3ccc(O)cc3c2=O)C(=O)N=C2SC=CN12 : true (1)
CC(C)Cn1c(N)c(C(=O)COC(=O)c2cc(-c3ccco3)nc3ccccc23)c(=O)n(C)c1=O : false (0)

Would you mind telling me which call this test gave "O=C(O)/C=C/C(=O)c1ccc2c(c1)CCc1ccccc1-2" ?
false (0)

Write down the call the test reported for this compound. Item: "O=S(=O)(Nc1c(O)ccc2ccccc12)c1ccccc1"
false (0)

---

# testDescription: counter assay for TAg ATPase ADP read-out – biochemical, ADP-Hunter, fluorescence, counter-screen (AID 2501);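 note: purified T antigen ATPase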
# runParameters: series mostly up to 100 µM
The whole screen tested about 2,200 compounds, of which about 1,200 (55%) were called active. No cut-off is given here; in the data, nearly all actives have IC50 up to about 92 µM. So high a share suggests a set chosen from earlier hits. The list shows a part of the results.
Result category, one only: Y (active), N (inactive)

Call for entry O=C1CCCCN1CCC(=O)N1CCCC(Nc2ccccc2)C1 (stereo not drawn) :
N

---

# testDescription: counter assay for TAg ATPase ADP read-out – biochemical, ADP-Hunter, fluorescence, counter-screen (AID 2501);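 note: purified T antigen ATPase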
# runParameters: series mostly up to 100 µM
Screen size: about 2,200 compounds; about 1,200 (55%) were called active. Cut-off not given; nearly all actives show IC50 up to about 92 µM. The set was probably picked from earlier hits. Some of the results follow.
Field 'call' accepts active, inactive

Cc1cccc(N=C2NC(=O)/C(=C/C=C/c3ccco3)S2)c1 : inactive

Per the assay record, what outcome was assigned to O=C1CCCC2=C1C(c1ccc(Br)cc1)c1c([nH]c(=S)[nH]c1=O)N2 (stereo unspecified) ?
active

Lab log entry: "O=c1[nH]c(=S)[nH]c2c1C(c1ccc(Br)cc1)c1c([nH]c(=S)[nH]c1=O)O2" — outcome as called in the assay?
inactive

# outcome recorded in this test, key = "O=C(Cc1nnc(NC(=O)c2ccccc2)s1)N/N=C\c1ccc(O)c(O)c1"
active

Give the logged outcome of this assay for the following compound: "NC(=O)c1ccc(N2CCN(c3ccc(O)cc3)CC2)c([N+](=O)[O-])c1"
active

Write down the call the test reported for this compound. Item: "O=C(Nc1ccc(CN2CCOCC2)cc1)c1ccc(N2CCCC2)c([N+](=O)[O-])c1"
inactive

---

# testDescription: counter assay for TAg ATPase ADP read-out – biochemical, ADP-Hunter, fluorescence, counter-screen (AID 2501);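 note: purified T antigen ATPase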
# runParameters: series mostly up to 100 µM
Among all 2,200 compounds or so, about 1,200 (55%) were called active. Cut-off not given; nearly all actives show IC50 up to about 92 µM. So high a share suggests a set chosen from earlier hits. The list shows a part of the results.
Your reply should match one of these outcome classes. active, inactive

COc1cc(CNc2ccc(N3CCCCC3)cc2)ccc1OCC(=O)NC(C)(C)C : active
CCN1/C(=C/C=C/c2sc3ccccc3[n+]2CC)Sc2ccccc21 : inactive
O=C(c1ccccc1)N1CCN(c2ccc(NCc3ccc4c(c3)OCO4)cc2)CC1 : active
O=C(Cn1sc2ccccc2c1=O)NC12CC3CC(CC(C3)C1)C2 : inactive
O=c1c2ccccc2sn1-c1nccs1 : active

Which result was noted for this compound in the test: "COc1cc(CNc2ccc3c(c2)CCC3)cc(OC)c1O"
active

# outcome recorded in this test, key = "COc1cc(/C=N/NS(=O)(=O)c2ccc(Br)cc2)ccc1O"
active

Kindly provide the recorded test outcome for the following compound: COc1cc(/C=N/NC(=O)C2=NNC(=O)C2C)ccc1O (stereo unspecified)
active

Call for entry CCN(CCNC(=O)C1CCCN(Cc2nc(-c3ccc(OC)cc3)oc2C)C1)c1ccccc1 (stereo unspecified) :
inactive

---

# testDescription: counter assay for TAg ATPase ADP read-out – biochemical, ADP-Hunter, fluorescence, counter-screen (AID 2501);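 note: purified T antigen ATPase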
# runParameters: series mostly up to 100 µM
The whole screen tested about 2,200 compounds, of which about 1,200 (55%) were called active. Cut-off not given; nearly all actives show IC50 up to about 92 µM. So high a share suggests a set chosen from earlier hits. The list shows a part of the results.
Write down the outcome that applies. Available outcomes: 1 = active, -1 = inactive

Some solved cases for reference:
O=C(O)C(c1ccccc1)N1C(=O)/C(=C\c2ccc(O)c(O)c2)SC1=S (centres undefined) : 1
CCOc1ccc2ccccc2c1C(=O)N[C@@H]1C(=O)N2[C@@H]1SC(C)(C)[C@@H]2C(=O)O : -1
COc1ccc(C2CC(=O)N3CN(c4ccccc4F)CSC3=C2C#N)cc1OC (centres undefined) : -1
Oc1ccc(Nc2nc(Cl)nc(NCc3ccco3)n2)cc1 : 1
COc1cc(SC#N)ccc1N=Cc1c(C)[nH]n(-c2cccc3ccccc23)c1=O : -1

For CCOc1ccccc1N1CSC2=C(C#N)C(c3c(OC)ccc4ccccc34)CC(=O)N2C1 (centres undefined) , which call appears in the assay record?
1

Recorded test outcome, item "Oc1ccc(-c2nc3ccccn3c2NCc2ccco2)cc1"
1

---

Item-by-item account of IC50
# testDescription: counter assay for TAg ATPase ADP read-out – biochemical, ADP-Hunter, fluorescence, counter-screen (AID 2501);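 note: purified T antigen ATPase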
# runParameters: series mostly up to 100 µM
Screen size: about 2,200 compounds; about 1,200 (55%) were called active. So high a share suggests a set chosen from earlier hits. The list shows a part of the results.

O=C(O)C1OC(Oc2c(-c3ccc(O)c(O)c3)oc3cc(O)cc(O)c3c2=O)C(O)C(O)C1O (stereo not drawn) : 8.72 µM (active)

State its IC50 for this compound: "Cc1ccc(N=c2oc3cc(O)ccc3cc2C(N)=O)cc1"
17.1 µM (active)

For "COc1cc(/C=C2\C(=N)N3N=C(S(C)(=O)=O)SC3=NC2=O)ccc1OS(=O)(=O)c1ccc(C)cc1" , write its IC50.
28.6 µM (active)

---

# testDescription: counter assay for TAg ATPase ADP read-out – biochemical, ADP-Hunter, fluorescence, counter-screen (AID 2501);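 note: purified T antigen ATPase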
# runParameters: series mostly up to 100 µM
The whole screen tested about 2,200 compounds, of which about 1,200 (55%) were called active. The limit is not given here; nearly all actives have IC50 up to about 92 µM. The set was probably picked from earlier hits. The list shows a part of the results.
Permitted responses: active, inactive

Field: example entries. Status: answers known.
Cc1cc(C)nc(SCc2cc(=O)c(OC(=O)c3ccc(S(=O)(=O)N4CCCC4)cc3)co2)n1 : inactive
COc1cccc(-n2cnnn2)c1 : inactive
Cc1ccc2nsnc2c1NS(=O)(=O)c1c(C)ccc2nsnc12 : inactive
Cc1[nH]nc(Nc2ccc(O)cc2)c1[N+](=O)[O-] : active
COc1ccc(N2CCC(CNC(=S)Nc3c(C)cc(C)cc3C)C2)cc1 (stereo unspecified) : active
CCN(CC)c1ccc(NC(=O)C2CC(=O)N(Cc3ccccc3)C2)cc1 (stereo unspecified) : active
COc1cc(/C=N/Nc2nc3ccccc3o2)cc(OC)c1O : active
COc1ccc(NCCc2ccccn2)cc1 : active
O=C(O)Cc1c[nH]c2cccc(O)c12 : active
CCOc1cc(NS(=O)(=O)c2ccc(NC(C)=O)cc2)c(OCC)cc1NC(=O)c1cccs1 : active

State the result this test recorded for "Cc1ccc(S(=O)(=O)N2[C@@H](c3ccc(Cl)cc3)C(C(=O)O)=CC[C@H]2c2ccc(C(C)C)cc2)cc1" .
inactive

Could you check what this test reported for "CCCCCn1c(=O)c2ccccc2n2c(=S)[nH]nc12" ?
active

Outcome logged for "COC1=CC(=O)C(O)=C(CCCCCCC/C=C/CCCCCCCC2=C(O)C(=O)C=C(OC)C2=O)C1=O" in this assay:
inactive

---

# testDescription: counter assay for TAg ATPase ADP read-out – biochemical, ADP-Hunter, fluorescence, counter-screen (AID 2501);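 note: purified T antigen ATPase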
# runParameters: series mostly up to 100 µM
The whole screen tested about 2,200 compounds, of which about 1,200 (55%) were called active. No cut-off is given here; in the data, nearly all actives have IC50 up to about 92 µM. The set was probably picked from earlier hits. This is one part of the list.
// allowed return values: True for active, False for inactive

Recorded results for 2 compounds are shown here.
c1csc(CN2CCOCC2)c1 : False
CCOc1ccc(C(=O)CSCC(=O)O)cc1 : False

Lab note: next compound to report on.
Called result for "Clc1cc(NCc2cccs2)ccc1N1CCOCC1"
True
